PROTOCOL: Pharmacokinetics in P. falciparum-infected humanized mice
ASSAY_SETUP: NOD-scid IL-2Rγ^null, mouse, whole blood, sc, 10 mg/kg
QUANTITY_MEASURED: Tmax (h)
The reply should contain only the number, in h.

Problem: Any idea what Tmax was measured for `CCSCc1ccc2c(c1)c1c3c(c4c5cc(CSCC)ccc5n5c4c1n2[C@H]1C[C@](O)(C(=O)OC)[C@]5(C)O1)CNC3=O` ?
Result: 4.8

New cases:
Problem: Can you share its Tmax? I mean this molecule: `C[C@]12O[C@H](C[C@]1(O)CO)n1c3ccccc3c3c4c(c5c6ccccc6n2c5c31)CNC4=O`
Result: 0.78

====

PROTOCOL: Pharmacokinetics in P. falciparum-infected humanized mice
ASSAY_SETUP: NOD-scid IL-2Rγ^null, mouse, whole blood, po, 300 mg/kg
QUANTITY_MEASURED: Cmax (ng/mL)
Write the number in ng/mL without appending the unit.

Problem: What does the record list as Cmax for `Cc1nc2cnccc2n1-c1ccc(C(=O)N2CCC(=C3c4ccc(Cl)cc4CCc4cccnc43)CC2)cc1` ?
Result: 17600

====

PROTOCOL: Pharmacokinetics in P. falciparum-infected humanized mice
ASSAY_SETUP: NOD-scid IL-2Rγ^null, mouse, whole blood, sc, 30 mg/kg
Reported Tmax values for the following compounds.
Answer with the figure and its unit, nothing else.

Problem: Quick check: Tmax of CCSCc1ccc2c(c1)c1c3c(c4c5cc(CSCC)ccc5n5c4c1n2[C@H]1C[C@](O)(C(=O)OC)[C@]5(C)O1)CNC3=O [CEP-1347] ?
Result: 6 h

Consider the additional compound presented here.
Problem: Can you look up the measured Tmax of C[C@]12O[C@H](C[C@]1(O)CO)n1c3ccccc3c3c4c(c5c6ccccc6n2c5c31)CNC4=O [Lestaurtinib] for me?
Result: 4 h

====

System: P. falciparum 3D7
PROTOCOL: SYBR I dye DNA staining assay (SJCRH), P. falciparum 3D7
ASSAY_SETUP: Plasmodium falciparum, 3D7, 72 h, read-out: EC50 3D7
The following molecules are listed with their measured EC50 values.
Please give a number only; it is taken to be in nM.

Here's what some known entries look like.
Problem: Need EC50, item CC(C)C[C@H](NC(=O)[C@H](Cc1ccccc1)NC(=O)c1cnccn1)B(O)O [Bortezomib]
Result: 20

Problem: Return reported EC50; argument: CO[C@@H]1[C@H](N(C)C(=O)c2ccccc2)C[C@H]2O[C@]1(C)n1c3ccccc3c3c4c(c5c6ccccc6n2c5c31)C(=O)NC4 [Midostaurin]
Result: 350

Problem: What value of EC50 has been recorded for this entry: COc1cc(Nc2c(C#N)cnc3cc(OCCCN4CCN(C)CC4)c(OC)cc23)c(Cl)cc1Cl [Bosutinib]
Result: 220

More entries:
Problem: EC50 lookup needed for N=C(N)c1ccc(OCCCCCOc2ccc(C(=N)N)cc2)cc1 [Pentamidine] , thanks.
Result: 220

Problem: Reported EC50, molecule C[C@]12O[C@H](C[C@]1(O)CO)n1c3ccccc3c3c4c(c5c6ccccc6n2c5c31)CNC4=O [Lestaurtinib] : ____
Result: 490

====

Tested on: human hepatoma Hep G2 cell line
PROTOCOL: Hep G2 cytotoxicity assay (AstraZeneca)
Format: cell-based
ASSAY_SETUP: HepG2, 72 h
QUANTITY_MEASURED: pEC50
// field semantics: pEC50 = negative decimal log of concentration (mol/L)

Problem: Look up pEC50: `CC(C)Oc1cc(Nc2nc(N[C@@H](C)c3ccc(F)cn3)ncc2Cl)n[nH]1`
Result: 4.98

Just for reference, paper PMC4021201 is where these values come from.
